The compounds listed here are annotated with their GI50.
test system: OVCAR-4; test: NCI tumour cell line growth inhibition, 48 h
Calls of active or inactive are those of the source. Cut-off read from the data, not from the text of the source: active = GI50 up to about 1.1 µM and inactive = higher.

Worked cases, GI50 given:
compound	reported value
O=C(Nc1cccc(Cc2cccc(NC(=O)c3ccccc3)c2)c1)c1ccccc1	6.79 µM (inactive)
C[C@]12CC[C@H]3[C@@H](CCC4=CC(=O)CC[C@@]43C)[C@@H]1CC[C@@H]2C(=O)Nc1ccc([N+](=O)[O-])c(C(F)(F)F)c1	15.3 µM (inactive)
CC(CC[C@@]1(O)OC2C[C@H]3[C@@H]4CC[C@H]5CC(OC6OC(CO)C(OC7OC(CO)C(O)C(OC8OCC(O)C(O)C8O)C7OC7OC(CO)C(O)C(O)C7O)C(O)C6O)[C@H](O)CC5(C)[C@H]4CCC3(C)C2[C@@H]1C)COC1OC(CO)C(O)C(O)C1O (some centres undefined)	9.79 µM (inactive)
Cc1cc(N(CCCl)CCCl)ccc1/C=N/NC(=O)Cc1cc(=O)oc2cc(O)ccc12	16.6 µM (inactive)
CC1(C)OCC(COC(=O)NCn2cc(-c3ccccc3)nn2)O1 (centres undefined)	> 100 µM (inactive)

API: value(readout=GI50, system=OVCAR-4) for record O=C1NC2(CCCC2)C2CCCCC12O (centres undefined)
> 100 µM (inactive)

Recorded GI50 for CC(=O)C12C[C@](C#N)(N3CCCCCC3)C1C=Cc1ccccc12 (some centres undefined) with OVCAR-4, please?
> 100 µM (inactive)

API: value(readout= GI50, system= OVCAR-4, query= Clc1ccc(/C=C/c2nc3ccccc3s2)cc1Cl )
15.6 µM (inactive)

GI50 of C=C(C(=O)OC)[C@@H]1C[C@@H](OC(C)=O)C2=C[C@H](C[C@@]3(C)O[C@@H]3C3=CC(C)=C(O3)[C@H]1OC(C)=O)OC2=O on OVCAR-4?
35.2 µM (inactive)

Return GI50 measured with OVCAR-4 given this compound: CC1=C(N2CC2)C(=O)c2nc3n(c2C1=O)CCC3O (centres undefined)
0.0662 µM (active)

Give the reported GI50 for CCCCCCCCCCCCCCCCCC(=O)Nc1ccn(C2OC(CO)C(O)C2O)c(=O)n1 (centres undefined) (system: OVCAR-4).
> 100 µM (inactive)

OVCAR-4 / GI50 / Clc1ccc(-c2nnc(C34CC5CC(CC(C5)C3)C4)o2)cc1 : value?
> 100 µM (inactive)

Item O=C(O)CN1CCNCCNCC1 with OVCAR-4 - GI50?
> 100 µM (inactive)

Query for OVCAR-4: what GI50 does the record show for CCCCCCCCC/C=C1/CC(CO)(COC(=O)C2CCCCC2)OC1=O (centres undefined) ?
> 100 µM (inactive)
